Values were extracted from patent US9884048B2.

Biological target: phosphorylated active hERK2 enzyme (Homo sapiens (Human), UniProt P28482)
Sequence (P28482 whole entry): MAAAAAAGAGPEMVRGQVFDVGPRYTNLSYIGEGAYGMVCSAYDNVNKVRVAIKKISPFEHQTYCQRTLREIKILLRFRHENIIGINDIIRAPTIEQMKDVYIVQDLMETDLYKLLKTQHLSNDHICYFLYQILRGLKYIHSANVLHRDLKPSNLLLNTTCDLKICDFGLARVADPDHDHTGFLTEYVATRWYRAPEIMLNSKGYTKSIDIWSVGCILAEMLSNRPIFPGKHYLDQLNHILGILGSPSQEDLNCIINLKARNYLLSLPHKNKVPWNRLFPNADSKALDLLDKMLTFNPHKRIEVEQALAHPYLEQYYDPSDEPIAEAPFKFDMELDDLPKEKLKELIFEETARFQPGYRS
Conditions: read-out: ERK2 IC50; IMAP-FP assay; 0.5 nM hERK2, 30 μM ATP; 10 point titration, 3 μM starting concentration
PROPERTY: IC50 (nM)

Field: example entries. Status: answers known.
| COMPOUND | UNIT_OF_MEASUREMENT | RECORDED_MEASUREMENT |
| --- | --- | --- |
| Cc1cc(-n2ncc3cc(NC(=O)NC4CCN(Cc5c(F)cccc5F)C4)ncc32)ccn1 (centres unmarked) | nM | 0.997 |
| Cc1cc(-n2ncc3cc(NC(=O)NC(C)c4ccc(OC(F)(F)F)cc4)ncc32)ccn1 (centres unmarked) | nM | 40.3 |
| Cc1cc(-n2ncc3cc(NC(=O)NC(c4ccccc4)C4CCCO4)ncc32)ccn1 (centres unmarked) | nM | 2.49 |
| Cc1cc(-n2ncc3cc(NC(=O)NCC(c4ccc(F)cc4)N4CCCCC4)ncc32)ccn1 (centres unmarked) | nM | 195 |
| CNC(=O)[C@@H](NC(=O)Nc1cc2cnn(-c3ccnc(C)c3)c2cn1)c1ccccc1 | nM | 1.09 |

(a) Cc1cc(-n2ncc3cc(NC(=O)N[C@H]4CN(C)C[C@@H]4c4ccccc4C)ncc32)ccn1 [Example 180]
(b) Cc1cc(-n2ncc3cc(NC(=O)N[C@H](C)c4ccccc4)nc(CN4CCOCC4)c32)ccn1
Ask: Min IC50? a | b Kindly give the label for the entry you pick.
Result: a
